Field: cytotoxicity at 70.5 h. Provide a value for each of the molecules that follow.
Assay: Human HepG2 cell viability assay in 384 well format
Assay type: toxicity, cell-based
Set-up: dose 125 nL, time 70.5 hour; concentration not given beside the values
Details: HepG2 cells, read-out: Inhibition
Write it as a number; the unit % goes unstated.

So what does the record say about cytotoxicity at 70.5 h for Cc1nn(C)cc1C(=O)N1CCCC(n2cncn2)C1 (centres undefined) ? -9.27

Here is the next molecule: Cn1nc(C(=O)N2CCOCC2)cc1C(=O)Nc1cc(Cl)cc(Cl)c1 -0.911

Here is the next molecule: Cc1ccc(CC(=O)N2CCCC(c3cc(C)[nH]n3)C2)cn1 (centres undefined) -7.57

Here is the next molecule: CN(CCCN1CCCCCC1)C(=O)c1ccccc1NCC(=O)O -12.7

Here is the next molecule: Cc1nc(CNC(=O)NCC2(C)CCCc3ccccc32)no1 (centres undefined) 29.3

Here is the next molecule: CCOCCCC(=O)Nc1c(-c2ccc(F)cc2)ncn1C 0.124

Here is the next molecule: Cn1cccc1C(=O)N1CCCC2(CCN(CCN3CCCC3)C2=O)C1 (centres undefined) -2.83

Here is the next molecule: CCN(CC)Cc1ccc(CNC(=O)C(C)(C)n2cc(Br)cn2)cc1 15.4

Here is the next molecule: CC(C1CC1)N(CC(=O)NCC(F)(F)F)C1CC1 (centres undefined) 13.2

Here is the next molecule: CNS(=O)(=O)c1ccc(CNC(=O)NCC2CCCO2)cc1 (centres undefined) -20.2

Here is the next molecule: CCOc1cccc(COC(=O)c2cscn2)n1 -4.87

Here is the next molecule: CCC(=O)NC1CCCN(C(=O)c2ccc(OCC3CC3)nc2)C1 (centres undefined) 15.5

Here is the next molecule: c1nc(CN2CCC3(CC2)COCCN3CC2CC2)c[nH]1 -18.8

Here is the next molecule: COc1cccc(CN2CCCC3(CCN(C(=O)N4CCCC4)C3)C2)c1 (centres undefined) -7.71

Here is the next molecule: Cc1cc(C(=O)Nc2cccn(Cc3ccccc3)c2=O)no1 1.5

Here is the next molecule: CCC(C)(NCC(=O)OC)c1nccs1 (centres undefined) -2.64

Here is the next molecule: CSCCCNc1nccc(-c2cc(C(=O)O)ccn2)n1 -7.43

Here is the next molecule: COc1ccc(NC(=O)C2CCOC2)c(N2CCN(C(C)=O)CC2)n1 (centres undefined) 4.61

Here is the next molecule: CCNc1ncc2c(n1)CN(c1ccc(OC(F)(F)F)cc1)C2=O -15.6

Here is the next molecule: COCCNc1ccc(CNC(=O)C2COc3ccccc32)cc1 (centres undefined) 19.2

Here is the next molecule: CCC(C)NC(=O)c1cncc(Br)c1 (centres undefined) -2.39

Here is the next molecule: COCCN1CC[C@H]2CN(c3cc(OC)ncn3)C[C@@H]2C1=O 24.4

Here is the next molecule: Cc1cc(C(=O)N2CCN(c3nc4c(C)cccc4s3)CC2)no1 9.18

Here is the next molecule: CNC(=O)CN1CCO[C@H]2CN(CC3CC3)C[C@H]21 -2.3
